Attribution: FireProtDB (doi:10.1021/bi034721x)

B1: Parvalbumin alpha, P02625 (parent)
chain: MSMTDLLSAEDIKKAIGAFTAADSFDHKKFFQMVGLKKKSADDVKKVFHILDKDKSGFIEEDELGSILKGFSSDARDLSAKETKTLMAAGDKDGDGKIGVEEFSTLVAES

Variants of: B1
Cond: Rattus norvegicus; pH 7.4; Thermal; DSC; sodium phosphate 10 mM; NaCl 0.20 M; structure 1RTP; whole UniProt chain shown
Property Label: unfolding enthalpy (calorimetric)

INSERT INTO measurements (mutation_notation, property_label, endpoint_value) VALUES
  ('K81S', 'unfolding enthalpy (calorimetric)', '71 kcal/mol');

For the 3 variants below, give their unfolding enthalpy (calorimetric) values.
1. A22P K81S
2. H27P
3. A22P H27P

["75 kcal/mol", "80 kcal/mol", "62 kcal/mol"]
